- EXPERIMENTAL SYSTEM: tau (Homo sapiens)
- Sequence (P10636 623-695 limits assumed): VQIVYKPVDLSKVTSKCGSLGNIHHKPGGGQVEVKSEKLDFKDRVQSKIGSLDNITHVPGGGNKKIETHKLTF
- RUN DESCRIPTION: MCE Phenols Library screening, tau biosensor cell seeding assay (AvZ)
- Format: cell-based
- EXPERIMENTAL SETUP: Z score, replicate 2
In plain terms, low Z Repl 2, meaning strictly below -0.07, gives true, and everything else gives false.

| COMPOUND | CLASS ASSIGNMENT |
| --- | --- |
| Oc1cccc2ccccc12 | false |
| Oc1ccc(OC2CCCCO2)cc1 (stereo not drawn) | true |
| Oc1ccc([C@H]2COc3cc(O)ccc3C2)cc1 [(-)-(S)-Equol] | true |
| CC(C)c1cc2c(c(O)c1O)[C@@]13CCCC(C)(C)[C@@H]1C[C@@H]2OC3=O | true |
| Cc1cc(O)c2c(=O)c3c(O)cc(O)c4c5c(O)cc(O)c6c(=O)c7c(O)cc(C)cc7c(c65)c(c2c1)c34 | true |
| O=c1oc2c(O)c(O)cc3c(=O)oc4c(O)c(O)cc1c4c23 | false |
| Oc1ccc2c(c1)OC[C@]1(O)Cc3cc(O)c(O)cc3[C@H]21 | true |
| O=C(O)c1cc(O)c2c(c1)[C@H]([C@H]1c3cc(C(=O)O)cc(O)c3C(=O)c3c(O[C@@H]4O[C@H](CO)[C@@H](O)[C@H](O)[C@H]4O)cccc31)c1cccc(O[C@@H]3O[C@H](CO)[C@@H](O)[C@H](O)[C@H]3O)c1C2=O [Sennoside A] | true |
| O=c1c(O[C@@H]2OC[C@H](O)[C@H](O)[C@H]2O)c(-c2ccc(O)c(O)c2)oc2cc(O)cc(O)c12 | true |
| OCCc1ccc(O)c(O)c1 [Hydroxytyrosol] | true |
| C#C[C@]1(O)CC[C@H]2[C@@H]3CCc4cc(O)ccc4[C@H]3CC[C@@]21C | false |
| COc1ccc(-c2cc(=O)c3c(O)c(OC)c(O)cc3o2)cc1 | false |
| O=C1c2ccccc2C(=O)c2c(O)c(O)cc(O)c21 | true |
| O=C(O)CCc1cccc(O)c1 [3-(3-Hydroxyphenyl)propionic acid] | false |
| COc1c(O)cc2c(c1O)[C@@H]1O[C@H](CO)[C@@H](O)[C@H](O)[C@H]1OC2=O | true |
| CC(C)=CCc1c(O[C@@H]2O[C@H](CO)[C@@H](O)[C@H](O)[C@H]2O)cc(O)c2c(=O)c(O[C@@H]3O[C@@H](C)[C@H](O)[C@@H](O)[C@H]3O)c(-c3ccc(O)cc3)oc12 [Epimedoside A] | true |
| O=C(OCC1=C[C@@H](O)[C@@H]2C=CO[C@@H](O[C@@H]3O[C@H](CO)[C@@H](O)[C@H](O)[C@H]3O)[C@H]12)c1ccc(O)cc1 [Agnuside] | false |
| COc1c(O[C@@H]2O[C@H](CO)[C@@H](O)[C@H](O)[C@H]2O)cc2oc(-c3ccc(O)cc3)cc(=O)c2c1O | true |
| O=C1CC(C(=O)O)c2c1oc(=O)c1cc(O)c(O)c(O)c21 (stereo not drawn) | true |
| O=c1cc(-c2ccc(O)cc2)oc2c([C@@H]3O[C@H](CO)[C@@H](O)[C@H](O)[C@H]3O)c(O)c([C@@H]3OC[C@@H](O)[C@H](O)[C@H]3O)c(O)c12 | true |
| CCCCCC/C=C\CCCCCCCCCc1cccc(O)c1C(=O)O | false |
| O=C(O)[C@H]1O[C@@H](Oc2cc(O)c3c(=O)cc(-c4ccc(O)c(O)c4)oc3c2)[C@H](O)[C@@H](O)[C@@H]1O [Luteolin 7-O-glucuronide] | false |
| CC(C)=CCc1c(O)c(CC=C(C)C)c2oc3c(O)cccc3c(=O)c2c1O | true |
| CC(=O)c1ccc(O)c(O)c1 [3',4'-Dihydroxyacetophenone] | true |
| O=C(O[C@H]1[C@H](Oc2c(-c3ccc(O)c(O)c3)oc3cc(O)cc(O)c3c2=O)O[C@H](CO)[C@H](O)[C@@H]1O)c1cc(O)c(O)c(O)c1 | true |
| COc1cc(CO)ccc1O | true |
| O=C(O)[C@H]1O[C@@H](Oc2cc(O)c3c(=O)cc(-c4ccccc4)oc3c2)[C@H](O)[C@@H](O)[C@@H]1O [Chrysin-7-O-glucuronide] | false |
| O=C(/C=C/c1ccc(O)c(O)c1)OCCc1ccccc1 | true |
| O=C(O)Cc1cc(O)ccc1O | true |
| COc1cc([C@@H]2OC[C@@H]3[C@H]2CO[C@H]3c2cc(OC)c(O[C@@H]3O[C@H](CO)[C@@H](O)[C@H](O)[C@H]3O[C@@H]3OC[C@](O)(CO)[C@H]3O)c(OC)c2)cc(OC)c1O | false |
